study target: IKKβ (Homo sapiens)
method description: IKKβ kinase assay (Z′-LYTE Assay Kit-Ser/Thr 5 Peptide)
Format: biochemical
parameter: IC50 (nM)

{"columns": ["compound", "parameter", "units label", "recorded result"],
 "data": [
  ["Cl.O=C(NC1CC1)c1cccc2[nH]c(-c3nc(N[C@@H]4CCC[C@H]4O)ncc3Cl)cc12 [Example 2, hydrochloride]", "IC50", "nM", 58.1]
]}

* * *

study target: IKKβ (Homo sapiens, UniProt O14920)
Sequence (O14920 whole entry): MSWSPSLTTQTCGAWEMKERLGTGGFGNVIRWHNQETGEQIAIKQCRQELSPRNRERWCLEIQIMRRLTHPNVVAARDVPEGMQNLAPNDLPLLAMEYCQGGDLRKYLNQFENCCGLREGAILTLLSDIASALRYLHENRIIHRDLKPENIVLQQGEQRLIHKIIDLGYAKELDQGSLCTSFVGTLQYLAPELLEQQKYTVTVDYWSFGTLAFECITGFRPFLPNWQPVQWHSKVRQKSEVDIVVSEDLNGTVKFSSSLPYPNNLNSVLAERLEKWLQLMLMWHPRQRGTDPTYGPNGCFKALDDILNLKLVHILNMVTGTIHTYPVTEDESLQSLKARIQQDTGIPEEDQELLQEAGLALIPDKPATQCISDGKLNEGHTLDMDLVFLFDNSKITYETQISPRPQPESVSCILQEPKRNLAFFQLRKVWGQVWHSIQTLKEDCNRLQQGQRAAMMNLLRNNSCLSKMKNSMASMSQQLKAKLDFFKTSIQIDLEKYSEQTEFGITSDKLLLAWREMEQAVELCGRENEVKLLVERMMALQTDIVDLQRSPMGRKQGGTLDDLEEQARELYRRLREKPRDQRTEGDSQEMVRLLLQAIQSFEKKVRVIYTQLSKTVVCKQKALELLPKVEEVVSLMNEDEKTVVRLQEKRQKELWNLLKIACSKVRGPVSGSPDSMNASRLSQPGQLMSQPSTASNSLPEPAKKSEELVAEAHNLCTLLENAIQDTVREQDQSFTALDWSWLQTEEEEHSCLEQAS
method description: IKKβ kinase assay (IKKβ-Inhibitor Screening Kit, ELISA)
Assay type: biochemical
condition notes: IKKβ-Inhibitor Screening Kit (Calbiochem), GST-IκBα substrate
pIC50: −log10 of the molar value. Structures can show the parent of a compound that is named as a salt.

{"columns": ["molecule", "study target", "pIC50"],
 "data": [
  ["O=C(NC1CC1)c1cccc2[nH]c(-c3nc(N[C@@H]4CCC[C@@H]4O)ncc3Cl)cc12 [Example 1, hydrochloride]", "IKKβ (Homo sapiens, UniProt O14920)", 7.82]
]}

The reported numbers originate from patent US8501166B2.
